Values compiled from patent US9200319B2.

molecular target: THERMINATOR™ DNA polymerase (Thermococcus sp., UniProt Q56366, A485L/D141A/E143A); construct: purchased New England Biolabs; assay: biochemical; parameters: species or system Thermococcus species 9° N-7; settings: IC50 for incorporation, concentration at which the compound incorporates on half the primer-template complexes; complement template base
Sequence (Q56366 whole entry D141A/E143A/A485L): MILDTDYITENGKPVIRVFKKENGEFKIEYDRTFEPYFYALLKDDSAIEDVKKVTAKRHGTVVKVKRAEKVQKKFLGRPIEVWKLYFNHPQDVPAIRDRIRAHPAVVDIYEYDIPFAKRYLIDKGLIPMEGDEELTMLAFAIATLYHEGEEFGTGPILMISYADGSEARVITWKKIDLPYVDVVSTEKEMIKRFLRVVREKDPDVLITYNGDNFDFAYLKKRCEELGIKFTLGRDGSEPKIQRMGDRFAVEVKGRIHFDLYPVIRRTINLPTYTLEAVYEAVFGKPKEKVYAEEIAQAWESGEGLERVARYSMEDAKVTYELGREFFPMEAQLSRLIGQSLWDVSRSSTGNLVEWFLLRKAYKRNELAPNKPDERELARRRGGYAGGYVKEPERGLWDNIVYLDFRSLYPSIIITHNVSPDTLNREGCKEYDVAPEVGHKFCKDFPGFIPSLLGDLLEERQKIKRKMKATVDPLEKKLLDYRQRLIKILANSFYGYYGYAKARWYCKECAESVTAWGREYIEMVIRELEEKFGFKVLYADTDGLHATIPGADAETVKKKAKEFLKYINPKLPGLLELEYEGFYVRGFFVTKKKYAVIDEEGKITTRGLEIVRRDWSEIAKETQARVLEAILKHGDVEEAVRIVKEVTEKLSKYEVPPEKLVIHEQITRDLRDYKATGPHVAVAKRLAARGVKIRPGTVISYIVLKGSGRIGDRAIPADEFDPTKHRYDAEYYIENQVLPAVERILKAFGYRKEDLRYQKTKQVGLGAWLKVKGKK
quantity_measured: pIC50
// pIC50: -log10(molar conc.)

Please review the following examples before continuing.
| compound | pIC50 |
| --- | --- |
| CC(C)C(OCc1cn([C@H]2C[C@H](O)[C@@H](COP(=O)(O)OP(=O)(O)OP(=O)(O)O)O2)c2ncnc(N)c12)c1ccccc1[N+](=O)[O-] (single isomer, unassigned) [5p098-ds1] | 8.17 |
| CC(C)C(OCc1cn([C@H]2C[C@H](O)[C@@H](COP(=O)(O)OP(=O)(O)OP(=O)(O)O)O2)c2ncnc(N)c12)c1c([N+](=O)[O-])cccc1[N+](=O)[O-] (single isomer, unassigned) [6p057-ds1] | 8.28 |
| Nc1nc2c(c(COCc3ccccc3[N+](=O)[O-])cn2[C@H]2C[C@H](O)[C@@H](COP(=O)(O)OP(=O)(O)OP(=O)(O)O)O2)c(=O)[nH]1 | 8.82 |
| Nc1ncnc2c1c(COCc1ccccc1[N+](=O)[O-])cn2[C@H]1C[C@H](O)[C@@H](COP(=O)(O)OP(=O)(O)OP(=O)(O)O)O1 | 8.44 |

Request: Requested field: pIC50. Item: CC(C)[C@H](OCc1cn([C@H]2C[C@H](O)[C@@H](COP(=O)(O)OP(=O)(O)OP(=O)(O)O)O2)c(=O)nc1N)c1ccccc1[N+](=O)[O-]
Response: 8.96

Request: May I ask what pIC50 has been recorded for COc1ccc(C(OCc2cn([C@H]3C[C@H](O)[C@@H](COP(=O)(O)OP(=O)(O)OP(=O)(O)O)O3)c3ncnc(N)c23)C(C)C)c([N+](=O)[O-])c1 (single isomer, unassigned) [6p087-ds2] ?
Response: 7.74

Request: Need pIC50 of CC(C)C(OCc1cn([C@H]2C[C@H](O)[C@@H](COP(=O)(O)OP(=O)(O)OP(=O)(O)O)O2)c2ncnc(N)c12)c1c([N+](=O)[O-])cccc1[N+](=O)[O-] (single isomer, unassigned) [6p057-ds2] , thanks.
Response: 8.24

Request: Fill in: pIC50 of Cc1ccccc1COCc1cn([C@H]2C[C@H](O)[C@@H](COP(=O)(O)OP(=O)(O)OP(=O)(O)O)O2)c(=O)[nH]c1=O is ___
Response: 8.85
